I'd appreciate it if you could supply AUC values for the items below.
- METHOD SUMMARY: Stability in human subcutaneous skin homogenate
- RECORDED CONDITIONS: human
Lab book: enter the figure in µmol·min/L, no units written.

Using the record for CCCCCC(CCC1C(O)CC2Cc3c(cccc3OCC(=O)O)CC21)OC(=O)N1CCCCC1 (stereo not drawn) [XIX] , report its AUC.
0.00

Query CCCCCC(O)CCC1C(O)CC2Cc3c(cccc3OCC(=O)NCC(=O)O)CC21 (stereo not drawn) [VII orig] next
0.14

Query CCCCCC(O)CCC1C(OC(=O)CCC(=O)O)CC2Cc3c(cccc3OCC(=O)O)CC21 (stereo not drawn) [XXII] next
0.00

Query CCCCCC(CCC1C(O)CC2Cc3c(cccc3OCC(=O)O)CC21)OC(=O)NC (stereo not drawn) [VIII] next
0.00

Query CCCCCC(CCC1C(O)CC2Cc3c(cccc3OCC(=O)O)CC21)OC(=O)OC (stereo not drawn) [IV 3rd] next
9.59

Query CCCCC[C@@H](CC[C@@H]1[C@H]2Cc3cccc(OCC(=O)O)c3C[C@H]2C[C@H]1O)OC(=O)[C@@H](N)C(C)C [XXIX] next
5.47

Query CCCCCC(O)CCC1C(OC)CC2Cc3c(cccc3OCC(=O)O)CC21 (stereo not drawn) [LIII] next
1.99

Query CCCCCC(CCC1C(O)CC2Cc3c(cccc3OCC(=O)O)CC21)OC(=O)COc1ccc(O)cc1 (stereo not drawn) [LIV] next
71.25

Query CCCCCC(CCC1C(O)CC2Cc3c(cccc3OCC(=O)O)CC21)OP(=O)(O)O (stereo not drawn) [VI] next
91.95

Query CCCCCC(CCC1C(O)CC2Cc3c(cccc3OCC(=O)O)CC21)OC(=O)C(C)C (stereo not drawn) [LXVII] next
44.79

Query CCCCCC(CCC1C(O)CC2Cc3c(cccc3OCC(=O)O)CC21)OC(=O)CC (stereo not drawn) [LV] next
78.38

Query CCCCCC(CCC1C(O)CC2Cc3c(cccc3OCC(=O)O)CC21)OC(=O)CO (stereo not drawn) [XLIV] next
6.70
